Tested on: LXRa homodimer (NR concentration 270 nM)
Test: PBM binding z-score (relative to random genomic background probes); higher = stronger binding; sequences stand for … in GC…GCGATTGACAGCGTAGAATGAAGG
Entries are grouped by PBM binding z-score into these classes: Low = under 0.3, Medium = from 0.3 up to 1, High = 1 and over

Input Sequence | Cat
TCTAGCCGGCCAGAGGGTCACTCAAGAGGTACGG | Low
CTCGAAAGGTCGTGCTCATGTGAGTATACCAAAC | Medium
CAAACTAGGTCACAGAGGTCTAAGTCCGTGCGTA | Medium
CCTACCGGGCCATTCAGAGGTCATTGATCATATG | High
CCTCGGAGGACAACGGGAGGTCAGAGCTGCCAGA | High

Input: Determine which band this sequence sits in: `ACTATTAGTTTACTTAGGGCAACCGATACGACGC`
Output: Medium

Input: Determine which band this sequence sits in: `AGAACGAAGGCACGCTGAGTTGATAGCAGAGTAG`
Output: Low

Input: Determine which band this sequence sits in: `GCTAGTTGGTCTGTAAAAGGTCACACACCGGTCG`
Output: High

Input: Determine which band this sequence sits in: `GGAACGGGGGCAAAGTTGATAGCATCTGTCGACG`
Output: Low

Input: Determine which band this sequence sits in: `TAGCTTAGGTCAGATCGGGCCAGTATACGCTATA`
Output: Low
